Data provenance: the supplement of paper PMC9170038

- Test system: MS2 coat protein
- Experiment description: apparent KD of MS2 coat protein; higher = weaker reporter binding
- Cond: Eterna round: R107; input ligand: arginine 13.2 mM
Assay endpoint: apparent KD of MS2 coat protein (nM)
# unit: nM | format: bare number

Worked cases, answers included:
Seq text	apparent KD of MS2 coat protein [nM]
ACAUGAGGAUCACCCAUGUAUCAACGGGAAGGAGCGCCAAACAAGGCAGGUAGGUCGCCCACAUGAGGAUCACCCGUGUGUUGGG [Exclusion Arginine A GF 30]	23.1
AUACAUGAGGAUCACCCAUGUCAUUCAGAAGGAGCGUCAUUUUAGACAGGUAGGUCGCUGUUAUUUUUAUUAUUCUUUAUGUUUU [JR_Nu_ExcArginiA_Sub025]	19.4
GGAUAGGACACGGCCGCCACUAGCUAGGAUACUAGCAACAUUUCCUCACAUGAGGAUCACCCAUGUAGGACCGGGUGUCCUAUCG	79.9

Sure, the documented apparent KD of MS2 coat protein for AAACAUGAGGAUCACCCAUGUAUACUUAGACGAGGACCGGUACGGCCGCCACUCGAACUUCAAGAUUUGGCGGAAAAUGUAUGUA [JR_ExcTryptoA_Sub022] is 9.71

Sure, the documented apparent KD of MS2 coat protein for AAUUGCGUUGGUGAGGCGGUUAAUGGCGAUACCAGCGUGGAAACACGCCCUUGGCAGCGCCAAAACAUGAGGAUCACCCAUGUUA [Liberec] is 50.7

Sure, the documented apparent KD of MS2 coat protein for UUAUUUAUAAAUGAUACCAGCCGAUUGGCCGCAAAUCCUAACAUGAGGAUCACCCAUGUCGGCCCUUGGCAGCAUUUAUGGGUUU [XTheo B #28] is 56

Sure, the documented apparent KD of MS2 coat protein for ACACGUGACAAGGAUACCAGCCUGGCUAGUUCAAACCCUCACAUGAGGAUCACCCAUGUAGGCCCUUGGCAGCCUAUAGUCUAAG [theeternabot_exclusion_MS2_Theo_B_38] is 27.7

* * *

- System: MS2 coat protein
- Experiment description: apparent KD of MS2 coat protein; higher = weaker reporter binding
- Cond: Eterna round: R101; input ligand: none
apparent KD of MS2 coat protein below 9 nM gives Not satisfied; apparent KD of MS2 coat protein at or above it gives Satisfied.

Please review the entries below; each comes with its answer.
Seq text	Assigned class
CAGUCGACCAUAACAAGGUCGACUGACUUCUGAGGAUCACCCAGAAGGCGUCACCUAAUAGGUGACGAGGAUAUGGAGUGAAAA [#SharedSequence IExNG# - 6] (puzzle (switch architecture): Inverted Exclusion NG 3)	Satisfied
AAAUAAACUCAAGGAUAUGACUCCGAAACGGAGUCAGAAGGUGAGGAUCACCCACCUAAGAUCAGACCUCAGGAAACUGAGGUC [#SharedSequence ExNG1 - 36] (puzzle (switch architecture): Exclusion NG 1)	Not satisfied
UAAAUAAAUCCUAGAGGAUCACCCUAGGAUAUCACCGUCGAGGUGCCAUAAUGGCACCUCGACGGUGAGAAGGAGGUUGAUAAA [#SharedSequence - SLExNG3: 6] (puzzle (switch architecture): Small Loop Exclusion NG 3)	Not satisfied

[in] Could you verify whether the entry UAAAUAGAUCCUAGAGGAUCACCCUAGGAUAUCACCGUCGAGGUGCCAUAAUGGCACCUCGACGGUGAGAAGGAGGUUGAUAAA [#SharedSequence - SLExNG3: 7] (puzzle (switch architecture): Small Loop Exclusion NG 3) shows apparent KD of MS2 coat protein of no less than 9 nM?
[out] Satisfied

* * *

- Test system: MS2 coat protein
- Experiment description: apparent KD of MS2 coat protein, switch OFF state (with FMN for OFF switches, without FMN for ON switches); designed switch direction (-1 OFF switch, 1 ON switch): 1; higher = weaker reporter binding
- Cond: FMN input: 0 or 200 uM; Eterna round: R93 (includes R88 designs)
apparent KD of MS2 coat protein below 0.1 µM gives class 0; apparent KD of MS2 coat protein at or above it gives class 1.

Please review the entries below; each comes with its answer.
In [3]: df
Out[3]:
                                   seq_text  assigned_class
0  AAAAAACAUGAGGAUCACCCAUGUGCAAAAUUCGCAGGAUAUUCCUCAAUUAAAUGAGAGGAAGAAGGGUGACAAA [Nob's Hobby 29 - Jieux - Same State 1]         class 1
1  CGCAAACAUGAGGAUCACCCAUGUCAUUGUGAUCAAGGAUAUGGGUUCCGAAGUGGAACACCAGAAGGUGAGUAGU [Sozaer]         class 1
2  AAGAAACAUGAGGAUCACCCAUGUAAGAUAAACACAGGAUAUGCGAAAUAAAUAAAUAAAGCAGAAGGGUGAAGAA [Mat - Same State 1 - Tesla mod - D149]         class 0
3  CAAAACAAAACAUAGGAUAUCAAAACAAAAACAUGAGGAUCACCCAUGUGGAAACAUGAGAAGGAUGAGAAGGAAAACAAAACAA [Meechl SS2 R2 m7]         class 0
4  AAAAGACAUGAGGAUCACCCAUGUAGGCCAAAGCAAGGAUAUAGGCCACAGGGACGUGAACUAGAAGGUGCACGGC [Zainlebe]         class 1
5  CAGCGCUGUCGAGAGGAUAUGCGGUGAAGGACAUGAGGAUCACCCAUGUAAGCGAUAGCAUUACGGUAGAAGGCUCUGCAGCUGC [Ceriso]         class 1

Now consider a different sequence.
[in] Could you verify whether the entry AUAACACAUGAGGAUCACCCAUGUAGAUACCCGUCAGGAUAUGCAAAGAAAAUAAACAAAGCAGAAGGGACAAUAA [SS 1 Tesla 2] shows apparent KD of MS2 coat protein of no less than 0.1 µM?
[out] class 0

* * *

- Tested on: MS2 coat protein
- Experiment description: apparent KD of MS2 coat protein; designed switch direction (-1 OFF switch, 1 ON switch): -1; higher = weaker reporter binding
- Cond: input ligand: none
apparent KD of MS2 coat protein below 50 nM gives not fulfilled; apparent KD of MS2 coat protein at or above it gives fulfilled.

Seq text	Assigned class
GCAGAAUACUAGGAUAUGUUGGUCGGAGGGCCAACAGAAGGAGUUACAUGAGGAUCACCCAUGUUCCCAAUGGG [Eternabot (Original) Solution 49] (Eterna round: R97, puzzle: Exclusion 6)	fulfilled

[in] Could you verify whether the entry GAAGUGCACAUGAGGAUCACCCAUGUGGGUGAGCCGUGCCUGAAGGAUAUGGCUCCCGAUGGAGACCAGAAGGUCAGUAAAUAA [Ededor] (Eterna round: R96, puzzle: Exclusion NG 3) shows apparent KD of MS2 coat protein of no less than 50 nM?
[out] fulfilled

[in] Could you verify whether the entry CUUUUGUGAGGAUAUUAGUAGUAAGUAAAUAAAAUUAUUACUAAGAAGGCACAUGAGGAUCACCCAUGUUCCUC [EX4 #81] (Eterna round: R97, puzzle: Exclusion 4) shows apparent KD of MS2 coat protein of no less than 50 nM?
[out] fulfilled

[in] Could you verify whether the entry AUCGUGCAGCUUUGCUGUACGAGUACAUGAGGAUCACCCAUGUAGGAUAUGGUACGCAAAGCGUGCUAGAAGGAUAUGAGAUGU [Mat - Exclusion NG 3 - Mod of JL - D98] (Eterna round: R96, puzzle: Exclusion NG 3) shows apparent KD of MS2 coat protein of no less than 50 nM?
[out] not fulfilled

[in] Could you verify whether the entry CCAUAUAACUGAGGAUAUCAUCGCCACUGACGUUGAGAAGGCAGACAUGAGGAUCACCCAUGUGAUUUCUCAAUAUUAUACAUC [Prohibition 79 - Jieux - Exclusion NG 1] (Eterna round: R96, puzzle: Exclusion NG 1) shows apparent KD of MS2 coat protein of no less than 50 nM?
[out] not fulfilled

[in] Could you verify whether the entry CACCGUUAGGGAGGAUAUCGUACAUGAGGAUCACCCAUGUAAUAAAUGAGAAUUUCGGAUGUAUGCGAGAAGGCCCAAAUCGGC [Ostracism 42 - Jieux - Exclusion NG 2] (Eterna round: R96, puzzle: Exclusion NG 2) shows apparent KD of MS2 coat protein of no less than 50 nM?
[out] not fulfilled

* * *

- Test system: MS2 coat protein
- Experiment description: apparent KD of MS2 coat protein; higher = weaker reporter binding
- Cond: Eterna round: R107; input ligand: none
Assay endpoint: apparent KD of MS2 coat protein
A bare number is not enough; add the unit after it.

Worked cases, answers included:
Seq text	Tested system	Observed
CUGUACAUCUCGGCCGCCACUGCAACAUGUAGAGAUGUAUAUGUACAUGAGGAUCACCCAUGUGGCAGGACCGGGAGGUGUGCAG [SSTryp B #27]	MS2 coat protein	0.147 µM
UUAAUCUUGGAUGAAAACAUUUAAGCAGAAGGAGCGUGAUAAAACACAGGUAGGUCGCUGAAGGGAACAUGAGGAUCACCCAUGU [AstrosSSArgA#15]	MS2 coat protein	0.038 µM
GCAUCCUAGUCGGCCGCCACUGCGGAUCCGGUUCUAGAUCCUUAACAUGAGGAUCACCCAUGUAGCAGGACCGGGACUAGGAUGC [(Trp1)-(TM)''-(TM)'-(Ms2)-(Trp2)_Design2]	MS2 coat protein	0.237 µM
ACAUGAGGAUCACCCAUGUAUUACCGGGAAGGAGCGCGUAAGGACGCAGGUAGGUCGCUCGGCGUCUGGCCGCAAGGCUGGACGA [#1 Same State - Arginine A Attempt #18 (HarryS)]	MS2 coat protein	0.0155 µM
AAUAACAUGAGGAUCACCCAUGUAAGUGGGCGAGGACCGGUACGGCCGCCACUCGGAUGAUGUUGACGAAAAGUCAGCAUCAUCA [#OpenEnded 2 #GuTurnoff #Tail]	MS2 coat protein	0.0247 µM

Sure, the documented apparent KD of MS2 coat protein for UGUGCAUGAGUUGGAAAAGCUCAUGGGCAUCGAGGACCGGUACGGCCGCCACUCGGCUGUACAUGAGGAUCACCCAUGUCAGGGU [#1 Same State - Tryptophan A Attempt #23 (HarryS)] is 0.288 µM

Sure, the documented apparent KD of MS2 coat protein for AACGUAUACAGAAGGAGCGUGAAUUAUUUUAUUUUUUUAUAAACAUGAGGAUCACCCAUGUCACAGGUAGGUCGCUGUAUUCGUA [JR_ExcArginiB_Sub018] is 0.0184 µM

Sure, the documented apparent KD of MS2 coat protein for AGAUUCGACACGGCCGCCACUUGUGGUGGAGGGUCUUUAGUCACACAUGAGGAUCACCCAUGUACAAGGACCGGGUGUUGAGUCU [XTryp B #23] is 0.0193 µM
